The following molecules are shown together with reported pEC50 values.
Tested on: SNU-398
Assay: Induction of apoptosis in human SNU398 cells assessed as caspase activation after 24 hrs by HTS assay
Type: functional, cell-based
Details: SNU-398, 24 h
pEC50: −log10 of the molar value.
reportedProperty: pEC50

1. COc1cc2c(c(OC)c1OC)-c1ccc(OC)c(=O)cc1[C@@H](NC(C)=O)CC2 : 8.40
2. COc1cc(C2C(C#N)=C(N)Oc3c2ccc2c3CCN2C)cc(Br)c1OC (stereo not drawn) : 9.00
3. COc1cc(C2C(C#N)=C(N)Oc3c2ccc2[nH]c(C)cc32)cc(Br)c1OC (stereo not drawn) : 7.57
4. COc1cc(C2C(C#N)=C(N)Oc3c2ccc2c3ncn2C)cc(Br)c1OC (stereo not drawn) : 8.52
5. COc1cc(C2C(C#N)=C(N)Oc3c2ccc2c3ccn2C)cc2c1OCO2 (stereo not drawn) : 7.92
6. Cc1cncc(C2C(C#N)=C(N)Oc3c2ccc2c3ccn2C)c1 (stereo not drawn) : 8.70
7. CC[C@]1(O)C[C@H]2CN(CCc3c([nH]c4ccccc34)[C@@](C(=O)OC)(c3cc4c(cc3OC)N(C=O)[C@H]3[C@@](O)(C(=O)OC)[C@H](OC(C)=O)[C@]5(CC)C=CCN6CC[C@]43[C@@H]65)C2)C1 : 7.92
8. COc1cc(C2C(C#N)=C(N)Oc3c2ccc2c3ccn2C)cc(Br)c1OC (stereo not drawn) : 8.70

Hey, just so you know, these numbers are from ChEMBL document CHEMBL1140741.
